Value source: ChEMBL document CHEMBL1126569

# System: KATO III stomach cancer cell line
# protocol.description: Tested in vitro for cytotoxicity against KATO III human stomach adenocarcinoma cell line
# Format: functional, cell-based
endpoint.name: pIC50
On this scale, pIC50 is minus log10 of a concentration expressed in M (mol/L).

Task: # query: pIC50 of entry [C-]#[N+][C@@H]1[C@H](n2ccc(N)nc2=O)OC(CO)[C@@H]1O (stereo partly specified)
Result: 4.05

* * *

# System: KATO III stomach cancer cell line
# protocol.description: tested for in vitro cytotoxicity against KATO III human stomach adenocarcinoma cell line
# Type: functional, cell-based
endpoint.name: IC50

Task: Fill in the blank: the reported IC50 of [C-]#[N+][C@@H]1[C@H](n2ccc(=O)[nH]c2=O)OC(CO)[C@@H]1O (stereo partly specified) is ____.
Result: > 100 µM

* * *

# System: KB
# protocol.description: Tested in vitro for cytotoxicity against KB human oral epidermoid carcinoma cell line
# Assay type: functional, cell-based
endpoint.name: pIC50
By convention, pIC50 is the negative base-10 log of a molar concentration.

Task: // query pIC50 value for entry [C-]#[N+][C@@H]1[C@H](n2ccc(N)nc2=O)OC(CO)[C@@H]1O (stereo partly specified)
Result: 5.10
